Hi! I'm sharing some pIC50 results obtained with Tyk2 (Homo sapiens (Human), UniProt P29597).
Sequence (P29597 whole entry): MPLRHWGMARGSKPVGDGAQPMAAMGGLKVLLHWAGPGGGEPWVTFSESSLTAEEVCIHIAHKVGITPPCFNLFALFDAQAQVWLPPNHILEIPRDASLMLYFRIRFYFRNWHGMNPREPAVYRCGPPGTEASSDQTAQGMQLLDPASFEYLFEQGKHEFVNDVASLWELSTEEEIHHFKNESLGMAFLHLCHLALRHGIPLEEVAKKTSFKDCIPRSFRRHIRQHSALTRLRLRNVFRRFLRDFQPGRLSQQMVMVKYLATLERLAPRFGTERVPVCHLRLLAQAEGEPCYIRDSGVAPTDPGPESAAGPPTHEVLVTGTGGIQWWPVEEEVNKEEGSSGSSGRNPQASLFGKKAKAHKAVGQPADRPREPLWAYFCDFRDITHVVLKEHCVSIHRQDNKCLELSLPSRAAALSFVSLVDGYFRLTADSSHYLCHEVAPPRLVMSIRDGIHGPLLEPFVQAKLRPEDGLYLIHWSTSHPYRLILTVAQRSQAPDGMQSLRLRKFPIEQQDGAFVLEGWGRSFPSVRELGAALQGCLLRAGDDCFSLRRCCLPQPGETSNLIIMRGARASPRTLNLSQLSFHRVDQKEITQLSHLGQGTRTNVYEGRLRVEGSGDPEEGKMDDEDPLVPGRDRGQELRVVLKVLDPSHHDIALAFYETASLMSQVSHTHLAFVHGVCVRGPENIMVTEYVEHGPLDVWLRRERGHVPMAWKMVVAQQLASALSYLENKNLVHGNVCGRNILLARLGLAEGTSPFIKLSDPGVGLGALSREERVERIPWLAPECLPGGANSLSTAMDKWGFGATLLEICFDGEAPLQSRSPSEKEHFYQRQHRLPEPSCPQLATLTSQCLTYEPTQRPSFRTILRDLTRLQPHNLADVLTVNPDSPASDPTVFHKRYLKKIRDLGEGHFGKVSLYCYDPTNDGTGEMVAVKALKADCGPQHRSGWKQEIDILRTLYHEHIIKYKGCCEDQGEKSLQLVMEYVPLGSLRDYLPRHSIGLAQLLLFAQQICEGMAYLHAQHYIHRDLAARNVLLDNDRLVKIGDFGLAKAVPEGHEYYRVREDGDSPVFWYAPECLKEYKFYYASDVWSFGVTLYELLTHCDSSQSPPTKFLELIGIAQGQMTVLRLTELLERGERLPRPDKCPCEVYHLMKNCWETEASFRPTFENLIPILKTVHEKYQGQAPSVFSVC
pIC50: −log10 of the molar value.

{"Compound": "O=c1[nH]c(=O)n([C@H]2CC[C@H](COCCC(F)(F)F)CC2)c2c1cnc1[nH]ccc12 [Synthetic Example 2]", "Target System": "Tyk2 (Homo sapiens (Human), UniProt P29597)", "pIC50": 7.59}
{"Compound": "N#CC[C@@H](NC[C@H]1CC[C@H](n2ccc(=O)c3cnc4[nH]ccc4c32)CC1)C(F)(F)F [Synthetic Example 3]", "Target System": "Tyk2 (Homo sapiens (Human), UniProt P29597)", "pIC50": 7.74}
{"Compound": "N#CC[C@@H](OC[C@H]1CC[C@H](n2ccc(=O)c3cnc4[nH]ccc4c32)CC1)C(F)(F)F [Synthetic Example 7]", "Target System": "Tyk2 (Homo sapiens (Human), UniProt P29597)", "pIC50": 7.96}
